List of Random Coil values.
- systemUnderTest: α-glucosidase (Saccharomyces cerevisiae)
- Sequence (P53341 whole entry): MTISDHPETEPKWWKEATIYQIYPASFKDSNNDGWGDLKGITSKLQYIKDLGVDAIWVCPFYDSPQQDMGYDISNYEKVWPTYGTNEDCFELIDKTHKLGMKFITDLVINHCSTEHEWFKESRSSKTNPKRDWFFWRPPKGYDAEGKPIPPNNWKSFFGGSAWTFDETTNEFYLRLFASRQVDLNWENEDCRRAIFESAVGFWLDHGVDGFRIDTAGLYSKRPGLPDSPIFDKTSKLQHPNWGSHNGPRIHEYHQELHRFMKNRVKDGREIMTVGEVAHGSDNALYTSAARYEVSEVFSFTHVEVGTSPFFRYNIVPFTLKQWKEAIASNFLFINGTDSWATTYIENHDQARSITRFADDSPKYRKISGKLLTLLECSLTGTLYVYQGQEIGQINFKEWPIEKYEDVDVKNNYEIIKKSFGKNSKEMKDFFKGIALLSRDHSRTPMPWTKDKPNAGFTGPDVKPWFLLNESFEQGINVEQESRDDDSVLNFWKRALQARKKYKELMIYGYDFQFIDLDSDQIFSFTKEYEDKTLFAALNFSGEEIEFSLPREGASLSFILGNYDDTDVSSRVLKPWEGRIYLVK
- protocol: FTIR secondary structure analysis of α-GLU complexes
- conditions: enzyme–porphyrin molar ratio 1:2, amide I band
The answer is to be given in %; state only the numeric part.

{"columns": ["molecule", "systemUnderTest", "Random Coil, %"],
 "data": [
  ["Nc1ccc(-c2c3nc(c(-c4ccc(N)cc4)c4ccc([nH]4)c(-c4ccc(N)cc4)c4nc(c(-c5ccc(N)cc5)c5ccc2[nH]5)C=C4)C=C3)cc1 [TAPP]", "α-glucosidase (Saccharomyces cerevisiae)", 23.93],
  ["O=C(O)c1ccc(-c2c3nc(c(-c4ccc(C(=O)O)cc4)c4ccc([nH]4)c(-c4ccc(C(=O)O)cc4)c4nc(c(-c5ccc(C(=O)O)cc5)c5ccc2[nH]5)C=C4)C=C3)cc1 [TCPP]", "α-glucosidase (Saccharomyces cerevisiae)", 22.15],
  ["Oc1ccc(-c2c3nc(c(-c4ccc(O)cc4)c4ccc([nH]4)c(-c4ccc(O)cc4)c4nc(c(-c5ccc(O)cc5)c5ccc2[nH]5)C=C4)C=C3)cc1 [THPP]", "α-glucosidase (Saccharomyces cerevisiae)", 23.74],
  ["O=C(O)c1ccc(-c2c3nc(c(-c4ccc(C(=O)O)cc4)c4ccc([nH]4)c(-c4ccc(C(=O)O)cc4)c4nc(c(-c5ccc(C(=O)O)cc5)c5ccc2[nH]5)C=C4)C=C3)cc1.[Ni+2] [Ni–TCPP]", "α-glucosidase (Saccharomyces cerevisiae)", 26.76]
]}

Request: What value of measured Random Coil is listed for O=C(O)c1ccc(-c2c3nc(c(-c4ccc(C(=O)O)cc4)c4ccc([nH]4)c(-c4ccc(C(=O)O)cc4)c4nc(c(-c5ccc(C(=O)O)cc5)c5ccc2[nH]5)C=C4)C=C3)cc1.[Cu+2] [Cu–TCPP] ?
Result: 25.05

---

- systemUnderTest: α-amylase (Sus scrofa)
- Sequence (P00690 16-511): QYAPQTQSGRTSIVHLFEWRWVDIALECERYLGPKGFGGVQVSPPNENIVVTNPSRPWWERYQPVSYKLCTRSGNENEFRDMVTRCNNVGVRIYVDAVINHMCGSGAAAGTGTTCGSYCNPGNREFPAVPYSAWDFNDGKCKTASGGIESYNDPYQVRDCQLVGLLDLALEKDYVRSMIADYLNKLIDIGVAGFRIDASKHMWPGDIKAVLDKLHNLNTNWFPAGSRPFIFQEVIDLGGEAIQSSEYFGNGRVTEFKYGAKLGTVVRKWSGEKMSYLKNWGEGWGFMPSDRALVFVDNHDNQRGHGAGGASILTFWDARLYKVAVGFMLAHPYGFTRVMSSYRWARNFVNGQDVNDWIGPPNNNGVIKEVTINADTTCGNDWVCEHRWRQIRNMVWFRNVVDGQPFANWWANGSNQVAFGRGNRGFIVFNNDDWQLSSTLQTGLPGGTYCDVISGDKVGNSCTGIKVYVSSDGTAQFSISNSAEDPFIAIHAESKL
- protocol: Fluorescence quenching, binding and thermodynamics with α-amylase
- conditions: T 304 K
List of Ksv values.

Observe how each entry below is paired with its result.
{"columns": ["querySmiles", "Ksv"],
 "data": [
  ["O=C(O)c1ccc(-c2c3nc(c(-c4ccc(C(=O)O)cc4)c4ccc([nH]4)c(-c4ccc(C(=O)O)cc4)c4nc(c(-c5ccc(C(=O)O)cc5)c5ccc2[nH]5)C=C4)C=C3)cc1.[Cu+2]", "4.33 ± 0.03 ×10^4 L/mol"],
  ["O=C(O)c1ccc(-c2c3nc(c(-c4ccc(C(=O)O)cc4)c4ccc([nH]4)c(-c4ccc(C(=O)O)cc4)c4nc(c(-c5ccc(C(=O)O)cc5)c5ccc2[nH]5)C=C4)C=C3)cc1", "3.55 ± 0.08 ×10^4 L/mol"],
  ["O=C(O)c1ccc(-c2c3nc(c(-c4ccc(C(=O)O)cc4)c4ccc([nH]4)c(-c4ccc(C(=O)O)cc4)c4nc(c(-c5ccc(C(=O)O)cc5)c5ccc2[nH]5)C=C4)C=C3)cc1.[Ni+2]", "8.47 ± 0.07 ×10^4 L/mol"],
  ["Nc1ccc(-c2c3nc(c(-c4ccc(N)cc4)c4ccc([nH]4)c(-c4ccc(N)cc4)c4nc(c(-c5ccc(N)cc5)c5ccc2[nH]5)C=C4)C=C3)cc1", "3.37 ± 0.02 ×10^4 L/mol"]
]}

Could you now look at the following compound, please?
Request: What value of measured Ksv is listed for `Oc1ccc(-c2c3nc(c(-c4ccc(O)cc4)c4ccc([nH]4)c(-c4ccc(O)cc4)c4nc(c(-c5ccc(O)cc5)c5ccc2[nH]5)C=C4)C=C3)cc1` ?
Result: 8.20 ± 0.02 ×10^4 L/mol
